All values here come from paper PMC12715762.

METHOD NOTES: IV/PO pharmacokinetics (rat)
Type: in vivo
MEASUREMENT SETUP: Sprague-Dawley, plasma; Rat (SD), 1 mg/kg iv; read-out: Elimination t1/2 (converted)
READOUT KIND: half-life

Provide half-life value for the following compound: "Cn1cc2c(-c3cc(F)c(CN4Cc5ncccc5C4=O)c(F)c3)ccc(C(C)(C)O)c2n1"
3.7 h

---

METHOD NOTES: rat oral dose escalation PK study
Format: in vivo
MEASUREMENT SETUP: Sprague-Dawley, rat, plasma, po, 10 mg/kg, rat PO 10 mpk, 10% Tween
READOUT KIND: AUC (ng·h/mL)
Lab book: enter the figure in ng·h/mL, no units written.

Entry "Cn1cc2c(-c3cc(F)c(CN4Cc5ncccc5C4=O)c(F)c3)ccc(C(C)(C)O)c2n1" needs its AUC filled in; supply it.
23800

---

METHOD NOTES: solubility in simulated gastric fluid (FaSSGF)
Type: physicochemical
MEASUREMENT SETUP: fassgf or other biorelevant
List of solubility values.
Answer with the value and then the unit.

Cn1cc2c(-c3cc(F)c(CN4Cc5ncccc5C4=O)c(F)c3)cccc2n1 [compound 1, reference compound] | 36 µg/mL

Now turn to the next compound.
Give the measured solubility for Cn1cc2c(-c3cc(F)c(CN4Cc5ncccc5C4=O)c(F)c3)ccc(C(C)(C)O)c2n1 [compound 7]
24.8 µg/mL

---

METHOD NOTES: 14-day rat toxicology and toxicokinetic study
Type: in vivo
MEASUREMENT SETUP: both sexes, rat, plasma, po, 30 mg/kg, Day 14, 30 mg/kg PO, PEG-400, rat
READOUT KIND: Cmax (µM)
The figure you give is taken to be in µM; do not add the unit.

For the molecule "Cn1cc2c(-c3cc(F)c(CN4Cc5ncccc5C4=O)c(F)c3)ccc(C(C)(C)O)c2n1" , give its reported Cmax.
10

---

METHOD NOTES: rat oral dose escalation PK study
Assay type: in vivo
MEASUREMENT SETUP: Sprague-Dawley, rat, plasma, po, 10 mg/kg, rat PO 10 mpk, 100% PEG
READOUT KIND: AUC (ng·h/mL)
Form entry: value (ng·h/mL) — number only.

Given the molecule "Cn1cc2c(-c3cc(F)c(CN4Cc5ncccc5C4=O)c(F)c3)ccc(C(C)(C)O)c2n1" , write its reported AUC.
20600

---

ASSAYED TARGET: P-gp (MDR1) (Homo sapiens)
Construct: host or cells: MDR1-MDCK cell monolayers
Sequence (P08183 whole entry): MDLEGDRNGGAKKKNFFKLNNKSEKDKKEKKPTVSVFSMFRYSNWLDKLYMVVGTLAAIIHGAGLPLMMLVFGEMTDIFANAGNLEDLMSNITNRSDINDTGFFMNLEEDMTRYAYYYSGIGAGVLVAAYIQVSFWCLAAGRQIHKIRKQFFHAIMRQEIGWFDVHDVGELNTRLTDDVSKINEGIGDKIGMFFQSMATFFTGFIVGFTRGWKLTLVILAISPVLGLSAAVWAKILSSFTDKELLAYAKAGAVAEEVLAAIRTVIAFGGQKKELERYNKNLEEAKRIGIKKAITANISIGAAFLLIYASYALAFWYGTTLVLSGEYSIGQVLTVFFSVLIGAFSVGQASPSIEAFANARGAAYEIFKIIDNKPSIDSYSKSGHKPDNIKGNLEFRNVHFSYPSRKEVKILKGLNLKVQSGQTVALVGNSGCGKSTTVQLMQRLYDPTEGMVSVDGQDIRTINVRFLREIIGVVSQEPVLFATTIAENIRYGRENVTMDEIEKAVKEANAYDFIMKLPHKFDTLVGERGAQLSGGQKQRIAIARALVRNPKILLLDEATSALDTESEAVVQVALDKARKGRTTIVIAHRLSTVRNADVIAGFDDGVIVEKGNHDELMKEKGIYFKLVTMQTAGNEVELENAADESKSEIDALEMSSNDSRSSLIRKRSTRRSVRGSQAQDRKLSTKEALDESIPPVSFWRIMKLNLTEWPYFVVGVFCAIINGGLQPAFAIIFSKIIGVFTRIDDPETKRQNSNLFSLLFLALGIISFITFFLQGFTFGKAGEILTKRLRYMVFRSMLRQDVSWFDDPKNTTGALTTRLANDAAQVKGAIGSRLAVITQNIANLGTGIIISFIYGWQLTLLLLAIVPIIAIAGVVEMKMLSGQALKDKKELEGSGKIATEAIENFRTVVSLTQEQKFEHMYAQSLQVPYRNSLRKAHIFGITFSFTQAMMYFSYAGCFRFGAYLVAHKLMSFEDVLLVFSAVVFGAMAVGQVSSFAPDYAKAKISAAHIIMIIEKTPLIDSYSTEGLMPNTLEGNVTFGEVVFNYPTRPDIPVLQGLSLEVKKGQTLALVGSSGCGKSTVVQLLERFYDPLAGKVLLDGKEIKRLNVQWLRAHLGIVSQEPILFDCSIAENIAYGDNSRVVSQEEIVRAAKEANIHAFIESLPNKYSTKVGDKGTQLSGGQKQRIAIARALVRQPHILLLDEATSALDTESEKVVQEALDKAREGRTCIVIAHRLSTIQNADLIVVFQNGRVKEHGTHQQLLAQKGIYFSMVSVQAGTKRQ
METHOD NOTES: MDCK-MDR1 permeability and efflux
Format: in vitro ADME
Set-up: dose or concentration left out as unconfirmed
MEASUREMENT SETUP: dog; MDCK-MDR1 efflux ratio; read-out: P-gp ER
READOUT KIND: efflux ratio at 2 h

Cn1cc2c(-c3cc(F)c(CN4Cc5ncccc5C4=O)c(F)c3)cccc2n1 [compound 1, reference compound] | 1.6

# input for lookup
// Input: "Cn1cc2c(-c3cc(F)c(CN4Cc5ncccc5C4=O)c(F)c3)ccc(C(C)(C)O)c2n1" . Output its efflux ratio at 2 h only.
1.97

---

METHOD NOTES: plasma protein binding, equilibrium dialysis (cyno)
Format: in vitro ADME
MEASUREMENT SETUP: cynomolgus monkey, pH 7.4, cyno (c), read-out: fu,plasma
READOUT KIND: fraction unbound at 6 h, 5 µM

Return the recorded fraction unbound at 6 h, 5 µM value; entry: "Cn1cc2c(-c3cc(F)c(CN4Cc5ncccc5C4=O)c(F)c3)ccc(C(C)(C)O)c2n1"
0.06

---

METHOD NOTES: 14-day rat toxicology and toxicokinetic study
Format: in vivo
MEASUREMENT SETUP: both sexes, rat, plasma, po, 300 mg/kg, Day 14, 300 mg/kg PO, PEG-400, rat
READOUT KIND: AUC(0-t) (µM·h)
Unit µM·h implied. Number only.

Recall and state the measured AUC(0-t) for "Cn1cc2c(-c3cc(F)c(CN4Cc5ncccc5C4=O)c(F)c3)ccc(C(C)(C)O)c2n1" .
909

---

ASSAYED TARGET: human M1 (Homo sapiens, UniProt P11229)
Sequence (P11229 whole entry): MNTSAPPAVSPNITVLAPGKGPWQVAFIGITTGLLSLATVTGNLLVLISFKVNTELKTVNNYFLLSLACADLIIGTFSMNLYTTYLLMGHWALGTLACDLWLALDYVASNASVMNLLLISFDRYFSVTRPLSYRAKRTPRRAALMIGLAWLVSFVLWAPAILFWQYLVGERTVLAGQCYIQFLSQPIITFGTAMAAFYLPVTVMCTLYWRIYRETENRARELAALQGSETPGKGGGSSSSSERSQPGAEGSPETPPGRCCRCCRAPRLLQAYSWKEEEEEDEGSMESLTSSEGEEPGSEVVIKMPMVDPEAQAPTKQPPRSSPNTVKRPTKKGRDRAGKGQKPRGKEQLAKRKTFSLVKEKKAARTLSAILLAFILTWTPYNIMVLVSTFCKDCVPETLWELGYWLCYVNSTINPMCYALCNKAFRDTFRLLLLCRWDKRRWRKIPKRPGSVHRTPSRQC
METHOD NOTES: M1 PAM calcium mobilization assay (human)
Format: cell-based
MEASUREMENT SETUP: human M1, n = 9; read-out: hM1 PAM EC50
READOUT KIND: pEC50
Value format note: pEC50 is -log10 of concentration (mol/L); just state the number.

Determine from records and report pEC50 for "Cn1cc2c(-c3cc(F)c(CN4Cc5ncccc5C4=O)c(F)c3)ccc(C(C)(C)O)c2n1"
7.23

---

ASSAYED TARGET: CYP 2B6 (Homo sapiens, UniProt P20813)
Sequence (P20813 whole entry): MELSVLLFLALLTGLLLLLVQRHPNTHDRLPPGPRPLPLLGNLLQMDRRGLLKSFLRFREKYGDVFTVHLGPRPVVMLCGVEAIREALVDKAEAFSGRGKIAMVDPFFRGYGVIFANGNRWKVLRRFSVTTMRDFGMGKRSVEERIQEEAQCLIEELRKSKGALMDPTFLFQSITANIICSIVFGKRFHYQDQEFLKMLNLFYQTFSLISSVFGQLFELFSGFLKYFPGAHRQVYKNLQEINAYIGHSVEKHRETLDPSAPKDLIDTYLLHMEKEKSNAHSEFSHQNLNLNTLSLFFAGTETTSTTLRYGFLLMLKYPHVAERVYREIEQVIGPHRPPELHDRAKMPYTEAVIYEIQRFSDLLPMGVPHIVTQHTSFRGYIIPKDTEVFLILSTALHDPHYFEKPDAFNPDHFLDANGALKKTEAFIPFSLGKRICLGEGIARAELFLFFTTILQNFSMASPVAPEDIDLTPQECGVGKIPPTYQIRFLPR
pIC50: −log10 of the molar value.
READOUT KIND: pIC50

Give a short answer stating reported pIC50 for "Cn1cc2c(-c3cc(F)c(CN4Cc5ncccc5C4=O)c(F)c3)ccc(C(C)(C)O)c2n1" .
< 4.52

---

ASSAYED TARGET: Adrenergic α2A (Homo sapiens, UniProt P08913)
Sequence (P08913 1-465): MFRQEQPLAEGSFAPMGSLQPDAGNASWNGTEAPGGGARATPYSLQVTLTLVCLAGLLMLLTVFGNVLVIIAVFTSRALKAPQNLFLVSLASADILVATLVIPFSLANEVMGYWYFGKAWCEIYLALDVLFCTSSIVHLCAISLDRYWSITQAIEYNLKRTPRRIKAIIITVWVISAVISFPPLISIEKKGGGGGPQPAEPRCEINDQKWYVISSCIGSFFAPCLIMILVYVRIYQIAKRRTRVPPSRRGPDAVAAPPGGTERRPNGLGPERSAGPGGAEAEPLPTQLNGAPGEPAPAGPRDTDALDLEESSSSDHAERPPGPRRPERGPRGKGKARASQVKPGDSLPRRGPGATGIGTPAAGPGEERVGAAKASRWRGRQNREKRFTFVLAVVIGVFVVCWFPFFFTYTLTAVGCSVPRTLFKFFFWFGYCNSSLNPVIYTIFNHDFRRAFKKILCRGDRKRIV
READOUT KIND: IC50 (µM)
# value in µM; strip the unit string

Supply reported IC50 belonging to this compound: "Cn1cc2c(-c3cc(F)c(CN4Cc5ncccc5C4=O)c(F)c3)ccc(C(C)(C)O)c2n1"
3.2

---

ASSAYED TARGET: mM1 (Mus musculus, UniProt P12657)
Sequence (P12657 whole entry): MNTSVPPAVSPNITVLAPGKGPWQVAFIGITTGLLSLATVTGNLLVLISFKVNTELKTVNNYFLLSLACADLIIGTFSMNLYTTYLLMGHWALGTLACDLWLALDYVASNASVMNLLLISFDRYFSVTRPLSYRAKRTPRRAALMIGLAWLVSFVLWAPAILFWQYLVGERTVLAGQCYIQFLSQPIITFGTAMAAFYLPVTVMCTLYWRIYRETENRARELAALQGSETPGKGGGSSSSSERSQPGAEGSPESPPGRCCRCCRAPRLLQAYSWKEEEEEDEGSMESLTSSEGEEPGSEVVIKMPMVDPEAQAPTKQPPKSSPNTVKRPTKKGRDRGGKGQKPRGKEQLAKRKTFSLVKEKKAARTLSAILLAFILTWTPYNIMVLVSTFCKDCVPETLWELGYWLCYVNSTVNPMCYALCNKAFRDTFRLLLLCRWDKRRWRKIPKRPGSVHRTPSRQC
METHOD NOTES: M1 PAM calcium mobilization assay (mouse)
MEASUREMENT SETUP: mouse M1, n = 1
READOUT KIND: EC50 (nM)
Number in nM, nothing else.

Cn1cc2c(-c3cc(F)c(CN4Cc5ncccc5C4=O)c(F)c3)cccc2n1 [compound 1, reference compound] | 728

Switching to the query record.
Using known records, supply EC50 for Cn1cc2c(-c3cc(F)c(CN4Cc5ncccc5C4=O)c(F)c3)ccc(C(C)(C)O)c2n1 [compound 7]
80

---

ASSAYED TARGET: CYP 2C8 (Homo sapiens)
Sequence (P10632 1-490): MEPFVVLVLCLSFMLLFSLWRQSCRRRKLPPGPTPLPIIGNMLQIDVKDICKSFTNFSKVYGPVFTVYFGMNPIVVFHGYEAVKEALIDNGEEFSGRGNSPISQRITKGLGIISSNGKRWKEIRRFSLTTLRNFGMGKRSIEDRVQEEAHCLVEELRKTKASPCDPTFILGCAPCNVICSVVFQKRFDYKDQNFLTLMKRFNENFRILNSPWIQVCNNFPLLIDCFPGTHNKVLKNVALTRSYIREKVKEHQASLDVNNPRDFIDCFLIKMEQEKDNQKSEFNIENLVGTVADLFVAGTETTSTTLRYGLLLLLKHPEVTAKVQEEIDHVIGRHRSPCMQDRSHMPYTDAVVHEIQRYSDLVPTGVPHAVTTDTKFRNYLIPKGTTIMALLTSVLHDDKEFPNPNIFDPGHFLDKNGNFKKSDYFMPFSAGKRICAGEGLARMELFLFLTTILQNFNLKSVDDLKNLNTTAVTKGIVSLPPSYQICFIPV
METHOD NOTES: CYP450 inhibition
Format: in vitro ADME
pIC50: −log10 of the molar value.
READOUT KIND: pIC50

// fetch pIC50 given entry Cn1cc2c(-c3cc(F)c(CN4Cc5ncccc5C4=O)c(F)c3)ccc(C(C)(C)O)c2n1 [compound 7]
< 4.52

---

ASSAYED TARGET: CYP 3A4 (Homo sapiens, UniProt P08684)
Sequence (P08684 whole entry): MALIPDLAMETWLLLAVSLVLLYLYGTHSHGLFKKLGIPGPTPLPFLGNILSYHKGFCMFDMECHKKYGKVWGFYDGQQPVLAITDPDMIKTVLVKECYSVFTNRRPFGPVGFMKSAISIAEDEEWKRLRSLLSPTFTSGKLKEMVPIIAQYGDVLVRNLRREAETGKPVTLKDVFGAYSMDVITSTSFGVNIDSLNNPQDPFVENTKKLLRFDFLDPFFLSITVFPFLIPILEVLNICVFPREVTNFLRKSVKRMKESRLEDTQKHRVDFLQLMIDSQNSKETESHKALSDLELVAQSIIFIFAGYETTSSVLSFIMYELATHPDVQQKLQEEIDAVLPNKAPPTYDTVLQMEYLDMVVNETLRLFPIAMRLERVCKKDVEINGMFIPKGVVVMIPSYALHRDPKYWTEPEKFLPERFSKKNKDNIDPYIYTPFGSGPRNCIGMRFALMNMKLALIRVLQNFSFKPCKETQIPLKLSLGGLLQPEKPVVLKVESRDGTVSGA
METHOD NOTES: CYP450 inhibition
Type: in vitro ADME
pIC50: −log10 of the molar value.
READOUT KIND: pIC50

In one line, give reported pIC50 of the entry Cn1cc2c(-c3cc(F)c(CN4Cc5ncccc5C4=O)c(F)c3)ccc(C(C)(C)O)c2n1 [compound 7] .
< 4.52

---

METHOD NOTES: rat oral dose escalation PK study
Format: in vivo
MEASUREMENT SETUP: Sprague-Dawley, plasma; rat PO 30 mg/kg, 10% aqueous Tween 80 suspension
READOUT KIND: AUC(0-t) (ng·h/mL)
Respond with the bare value in ng·h/mL.

Answer with the recorded AUC(0-t) for the compound listed here: Cn1cc2c(-c3cc(F)c(CN4Cc5ncccc5C4=O)c(F)c3)ccc(C(C)(C)O)c2n1 [compound 7]
66500
